# Test system: HACAT
# Test: qHTS assay to identify novel small-molecules to repurpose for Merkel cell carcinoma treatment (AID 1296009); also: nearly all actives have a fitted effect of over 60% in size
# Protocol conditions: MCC and control cell lines, CellTiter-Glo viability, 72 h; at 44.8 µM (top of the series) unless noted
Inconclusive results are not listed. Active and inactive are the calls of the source. Calls follow the shape of the dose curve; as a rule, active = well fitted inhibition curve with a large enough effect; inconclusive = small, poorly fitted or top-dose-only effect; inactive = flat fitted curve, though single readings scatter.
Property: outcome

Example entries begin here.
Molecule | Experimental value
C/C=C/C1=CC2=C(CO1)C(=O)[C@](C)(O)[C@H](OC(=O)c1c(O)cc(OC)c(O)c1C)C2 | inactive [at 17.4 µM]
C=C1CCC[C@]2(C)C[C@]3(O)OC(=O)C(C)=C3C[C@@H]12 | inactive
COC1CCCC/C(C)=C/C2C=C(C)C(C)C3C(CC(C)C)NC(=O)C23C(=O)C1 (stereo not given) | inactive [at 17.4 µM]
O=C(c1ccccn1)c1cnn2c(-c3ccncc3)ccnc12 | inactive
CC(=O)c1c(C)cc(O)cc1O[C@@H]1O[C@H](CO)[C@@H](O)[C@H](O)[C@H]1O | inactive
C[C@@H]1O[C@@H](O[C@@H]2[C@@H](O)[C@H](O[C@@H]3[C@@H](O)[C@@H](O)[C@H](O[C@H]4[C@H](OC(=O)[C@]56CCC(C)(C)C[C@H]5C5=CCC7[C@@]8(C)C[C@H](O)[C@H](O[C@@H]9O[C@H](C(=O)O)[C@@H](O)[C@H](O)[C@H]9O)[C@@](C)(CO)C8[C@H](O)C[C@@]7(C)[C@]5(C)CC6)OC[C@H](O)[C@@H]4O)O[C@H]3C)OC[C@H]2O)[C@H](O)[C@H](O)[C@H]1O (stereo not given in full) | inactive [at 9.27 µM]

The record that follows has no outcome shown yet.
Inquiry: Param readout = outcome; param system = HACAT; param query = CC1(C)CCCC2(C)C3=C(C(=O)OC3O)C(O)CC12 (stereo not given) ; response: value
Reply text: inactive

###

# Tested on: TAB113
# Test: qHTS profiling for inhibitors of Plasmodium falciparum proliferation (AID 504749); also: nearly all actives have a fitted effect of over 60% in size
# Protocol conditions: P. falciparum in erythrocytes, SYBR Green DNA, 72 h; series mostly up to 28.7 µM
Inconclusive results are not listed. The source made the active and inactive calls. Calls come from the whole dose curve; as a rule, active = well fitted inhibition curve with a large enough effect; inconclusive = small, poorly fitted or top-dose-only effect; inactive = flat fitted curve, though single readings scatter.
Choose one outcome from this list and give only that: T (active), F (inactive)

Answered cases to consult:
Compound | Category
CO[C@H](C(=O)[C@@H](O)[C@@H](C)O)C1Cc2cc3cc(O[C@H]4C[C@@H](O[C@H]5C[C@@H](O)[C@H](O)[C@@H](C)O5)[C@@H](O)[C@@H](C)O4)c(C)c(O)c3c(O)c2C(=O)[C@H]1O[C@H]1C[C@@H](O[C@H]2C[C@@H](O[C@H]3C[C@](C)(O)[C@H](O)[C@@H](C)O3)[C@H](O)[C@@H](C)O2)[C@H](O)[C@@H](C)O1 (stereo partly specified) | T
CCOC(C)=O | F
CC[C@@]1(O)C(=O)OCc2c1cc1n(c2=O)Cc2cc3c([N+](=O)[O-])cccc3nc2-1 | T
CCCCCCC(O)C/C=C/CCCCCCCC(=O)O (stereo unspecified) | F
CC[N+](C)(C)Cc1ccccc1Br | F

Consider now this further compound.
Inquiry: # outcome recorded in this test, key = "Cc1cc(C(=O)NNCc2ccccc2)no1"
Reply text: F

###

# Test system: C33A
# Test: Primary qHTS to identify gynecologic anti-cancer compounds using libraries of approved drugs and bioactive compounds (AID 1345084); also: % is scaled to controls: 0 for no effect and ±100 for the full control effect; nearly all actives have a fitted effect of over 55% in size
# Protocol conditions: Gynecologic cancer cell panel viability, ATPlite luminescence, 48 h; series mostly up to 57.5 µM
Results filed as inconclusive are left out. Calls of active or inactive are those of the source. Calls come from the whole dose curve; as a rule, active = well fitted cell-killing curve with a large enough effect; inconclusive = small, poorly fitted or top-dose-only effect, or effect the other way; inactive = flat fitted curve, though single readings scatter.
Property: activity change, negative = cytotoxicity

Example entries begin here.
Molecule | activity change, negative = cytotoxicity
CC1(C)CC[C@]2(C(=O)O[C@@H]3O[C@H](CO)[C@@H](O)[C@H](O)[C@H]3O)CC[C@]3(C)C(=CCC4[C@@]5(C)C[C@@H](O)[C@H](O)C(CO)(CO)C5CC[C@]43C)C2[C@@H]1O (stereo not given in full) | inactive
C=C1[C@H]2CC[C@]3(O)[C@@](CC[C@@H]4[C@](C)(C(=O)O)CCC[C@]43C)(C2)[C@H]1OC(=O)/C(C)=C\C | inactive
CNC(=O)Nc1ccc(OC)c(NC(=O)NC(=O)c2cc(F)c(F)cc2Cl)c1 | inactive
CC1=CC[C@]2(C(=O)O[C@@H]3O[C@H](CO[C@@H]4O[C@H](CO)[C@@H](O[C@@H]5O[C@@H](C)[C@H](O)[C@@H](O)[C@H]5O)[C@H](O)[C@H]4O)[C@@H](O)[C@H](O)[C@H]3O)CC[C@]3(C)C(CCC4[C@@]5(C)C[C@@H](O)[C@H](O)[C@@](C)(CO)C5CC[C@]43C)C2C1C (stereo not given in full) | 6.24% [at 11.6 µM] (inactive)

The record that follows has no activity change, negative = cytotoxicity shown yet.
Inquiry: For the molecule shown here, CC1(C)C[C@H]2C3=CCC4[C@@]5(C)CC[C@H](O[C@H]6O[C@H](C(=O)O)[C@@H](O)[C@H](O)[C@H]6O[C@H]6O[C@H](CO)[C@@H](O)[C@H](O)[C@H]6O[C@@H]6O[C@H](CO)[C@@H](O)[C@H](O)[C@H]6O)[C@](C)(CO)C5CC[C@@]4(C)[C@]3(C)CC[C@@]2(C)[C@H](O[C@@H]2OC[C@H](O)[C@H](OC3O[C@H](CO)[C@@H](O)[C@H](O)[C@H]3O)[C@H]2O)[C@@H]1O (stereo not given in full) , give the reported activity change, negative = cytotoxicity.
Reply text: 3.46% [at 6.55 µM] (inactive)

###

# Tested on: Es-2
# Test: Primary qHTS to identify gynecologic anti-cancer compounds using libraries of approved drugs and bioactive compounds (AID 1345084); also: % is scaled to controls: 0 for no effect and ±100 for the full control effect; nearly all actives have a fitted effect of over 55% in size
# Protocol conditions: Gynecologic cancer cell panel viability, ATPlite luminescence, 48 h; series mostly up to 57.5 µM
Results filed as inconclusive are left out. Activity calls are given as the source filed them. Calls follow the shape of the dose curve; as a rule, active = well fitted cell-killing curve with a large enough effect; inconclusive = small, poorly fitted or top-dose-only effect, or effect the other way; inactive = flat fitted curve, though single readings scatter.
Property: activity change, negative = cytotoxicity

Example entries begin here.
Compound | activity change, negative = cytotoxicity
CC(C)(O)C1CC=C(C(=O)OCC2OC(Oc3c(O)cc(C(=O)O)cc3O)C(O)C(O)C2O)CC1 (stereo unspecified) | inactive
C=C1C(=O)OC2/C=C(\C)CC/C=C(\C(=O)O)CC/C=C(\C)CCC12 (stereo unspecified) | inactive
C=C1CCC2C(C)(C(=O)O)CC(O)CC2(C)C1CC/C(C)=C/C(=O)O (stereo unspecified) | inactive
C[C@@H]1O[C@@H](O[C@H]2[C@H](O)[C@@H](C(=O)O)O[C@@H](O[C@H]3CC[C@@]4(C)C(CC[C@]5(C)C4CC=C4C6CC(C)(C)CC[C@]6(C(=O)O)CC[C@]45C)C3(C)C)[C@@H]2O[C@@H]2O[C@H](CO)[C@@H](O)[C@H](O)[C@H]2O)[C@H](O)[C@H](O)[C@H]1O (stereo partly specified) | 0.67% [at 11.6 µM] (inactive)
CCN[C@@H]1C[C@H](N)[C@@H](O[C@H]2OC(CN)=CC[C@H]2N)[C@H](O)[C@H]1O[C@H]1OC[C@](C)(O)[C@H](NC)[C@H]1O | inactive

The record that follows has no activity change, negative = cytotoxicity shown yet.
Inquiry: For the compound shown here, "CC(=O)OC[C@@]12[C@H](O)C[C@@H](C)[C@]3(C[C@@H](c4ccoc4)OC3=O)[C@H]1C[C@H](O)C[C@]21CO1" , give the reported activity change, negative = cytotoxicity.
Reply text: inactive

###

# Test: Cell Proliferation Assay against the TMD8 Cell Line (Caspase readout at 8 hrs) (AID 651713);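 as to caspase activation: 0% = DMSO and 100% = 9.2 µM bortezomib caspase signal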
# Protocol conditions: TMD8 lymphoma cells, caspase activation luminescence; series mostly up to 46.1 µM
Inconclusive results are not listed. Calls of active or inactive are those of the source. Calls follow the shape of the dose curve; as a rule, active = well fitted activation curve with a large enough effect; inconclusive = small, poorly fitted or top-dose-only effect, or another doubt; inactive = no such curve, though single readings can be large or run the other way.
Choose one outcome from this list and give only that: y for active, n for inactive

Answered cases to consult:
Compound | Category
Cc1nnc(C(C)C)n1C1CC2CCC(C1)N2CC[C@H](NC(=O)C1CCC(F)(F)CC1)c1ccccc1 (some centres not stated) | n
O=C(O)CC/C=C\CC[C@H]1[C@@H](N2CCCCC2)[C@@H](O)C[C@@H]1OCc1ccc(-c2ccccc2)cc1 | n
CCOc1cc2ncc(C#N)c(Nc3ccc(OCc4ccccn4)c(Cl)c3)c2cc1NC(=O)/C=C/CN(C)C | y
CCC1(O)CC2CN(CCc3c([nH]c4ccccc34)[C@@](C(=O)OC)(c3cc4c(cc3OC)N(C=O)[C@H]3[C@](O)(C(=O)OC)[C@H](OC(C)=O)[C@]5(CC)C=CCN6CC[C@]43[C@@H]65)C2)C1 (some centres not stated) | y
CC(NC(=O)Cc1cc(F)cc(F)c1)C(=O)NC(C(=O)OC(C)(C)C)c1ccccc1 (configuration not stated) | n

Inquiry: # outcome recorded in this test, key = O=c1cc(C2=CC=CC3Sc4ccccc4SC23)oc(N2CCOCC2)c1 (configuration not stated)
Reply text: y

Inquiry: # outcome recorded in this test, key = "CCCCCCCCCCCCCCCCCCOP(=O)([O-])OC1CC[N+](C)(C)CC1"
Reply text: n

meta.source: PubChem BioAssay (NCATS)
